Target: murine SR-BI (Mus musculus, UniProt Q61009)
Construct: expressed in transfected cells; host or cells: ldlA[mSR-BI]; (CHO ldlA7 derivative lacking the LDL receptor)
Experiment: DiI-HDL uptake assay with extended washout
Format: cell-based
Conditions: after a 4-hour washout period
pIC50: −log10 of the molar value.
measurement kind: pIC50

| compound | recorded value |
| --- | --- |
| CCCCCCC1CCCC1=NNC(N)=S (stereo not shown) [BLT-1, reference compound] | 9.22 |

====

Assay: Cell cytotoxicity assay (CellTiter-Glo)
Format: cell-based, Chinese hamster
Conditions: Chinese hamster, ldlA[mSR-BI] cells; after 24 hours of treatment
measurement kind: EC50 at 24 h

| compound | measurement kind | recorded value |
| --- | --- | --- |
| COCC(=O)N1CCc2cc(-c3csc(NC(=O)c4cc(OC)cc(OC)c4)n3)ccc21 [Compound 137] | EC50 at 24 h | > 35 µM |

====

Biological target: murine SR-BI (Mus musculus, UniProt Q61009)
Construct: expressed in transfected cells; host or cells: ldlA[mSR-BI]; (CHO ldlA7 derivative lacking the LDL receptor)
Sequence (Q61009 1-509): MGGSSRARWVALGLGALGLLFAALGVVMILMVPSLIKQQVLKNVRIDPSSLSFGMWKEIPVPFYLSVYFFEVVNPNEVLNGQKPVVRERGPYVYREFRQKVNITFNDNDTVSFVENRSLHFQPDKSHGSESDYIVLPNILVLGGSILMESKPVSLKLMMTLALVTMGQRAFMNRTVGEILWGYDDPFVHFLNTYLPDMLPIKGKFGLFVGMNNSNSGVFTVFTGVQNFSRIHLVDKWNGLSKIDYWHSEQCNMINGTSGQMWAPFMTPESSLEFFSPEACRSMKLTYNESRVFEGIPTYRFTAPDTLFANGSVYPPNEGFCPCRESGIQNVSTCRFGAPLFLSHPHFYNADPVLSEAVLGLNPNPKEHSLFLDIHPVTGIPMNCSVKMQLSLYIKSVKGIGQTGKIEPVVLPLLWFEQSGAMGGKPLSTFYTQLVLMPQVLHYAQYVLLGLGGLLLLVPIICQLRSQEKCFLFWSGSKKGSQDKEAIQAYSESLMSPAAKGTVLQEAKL
Assay: DiI-HDL uptake assay with washout
Format: cell-based
Details: cells pre-treated, washed with PBS, DiI-HDL without compound; read-out: IC50 after washout
pIC50: −log10 of the molar value.
measurement kind: pIC50

| item smiles | measurement kind | recorded value |
| --- | --- | --- |
| COCC(=O)N1CCc2cc(-c3csc(NC(=O)c4cc(OC)cc(OC)c4)n3)ccc21 | pIC50 | 6.52 |

====

Assay: Plasma protein binding
Format: in vitro ADME
Conditions: human plasma; read-out: plasma protein binding, bound (converted)

| item smiles | fraction unbound |
| --- | --- |
| COCC(=O)N1CCc2cc(-c3csc(NC(=O)c4cc(OC)cc(OC)c4)n3)ccc21 | 0.065 |

====

Molecular target: SR-BI (Mus musculus)
Assay: Radioactive HDL uptake assay (wild type SR-BI)
Assay type: cell-based, murine
Design: expressed in transfected cells; host or cells: ldlA[mSR-BI]; (CHO ldlA7 derivative lacking the LDL receptor)
Conditions: [3H]cholesteryl ester HDL; read-out: average IC50, radiolabeled version of the uptake assay

| item smiles | unit of measure | IC50 |
| --- | --- | --- |
| COCC(=O)N1CCc2cc(-c3csc(NC(=O)c4cc(OC)cc(OC)c4)n3)ccc21 | nM | 1000 |
